TEST_DESCRIPTION: label from the status in PepcDB records

| MONOMER_SEQUENCE | protein production |
| --- | --- |
| MTKRVTCSACDGFGAEGGETGMVSCNSCEGNGFILKNQRSIFGTVQSQMLCQSCGGQGKQALEHHHHHH | failed |
| MSALREALRDLPDAVFADVLESEDEYLLVLDLPGVTAETIDVTVEGGRLRIDGQRTKDVPGEFTFVREDRSVFLDAELPLPPDTTGQGGEGTVENGVLELRLPKATAAPSTTIPIDGD | failed |
| MIEEEAIVTQVEEHAIWVEKFRKSACGSCAGGCSTSLVARLLGGKPLRLRIATEARVAPGDRVIIGVEEGALLAGSFRMYLFPLFSLIGGALLGKLLAAQGLSATAEAGSIAGGLVGLGLTLVLLKYCPSLQRQNLHPVFIRRISR | failed |
